Recorded values, source the supplement of paper PMC8728848.

molecular target: Fuc(a1-3)[Gal(b1-4)]GlcNAc(b1-2)Man(a1-3)[Fuc(a1-3)[Gal(b1-4)]GlcNAc(b1-2)Man(a1-6)]Man(b1-4)GlcNAc(b1-4)GlcNAc; test: glycan array binding signal (z-score within array); higher = stronger binding; details: glycan notation: IUPAC condensed, linker removed
The entries come from a sample that favours the strongest signals as a whole.
For each of the binders below, state its glycan array binding signal (z-score).
I'd appreciate a reply containing only the number, no unit.

Request the reported glycan array binding signal (z-score) associated with LCA (Lens culinaris), P02870 (protein) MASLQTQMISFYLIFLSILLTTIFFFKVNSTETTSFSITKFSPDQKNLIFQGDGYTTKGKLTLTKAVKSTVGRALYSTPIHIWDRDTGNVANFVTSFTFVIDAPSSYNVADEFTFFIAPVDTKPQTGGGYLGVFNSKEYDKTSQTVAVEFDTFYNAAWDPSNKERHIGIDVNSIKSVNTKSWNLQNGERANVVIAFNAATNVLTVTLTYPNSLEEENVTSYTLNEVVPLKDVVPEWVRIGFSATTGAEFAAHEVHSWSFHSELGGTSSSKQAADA
-0.237

Quick one: glycan array binding signal (z-score) of XCL (Xerocomus chrysenteron) (protein) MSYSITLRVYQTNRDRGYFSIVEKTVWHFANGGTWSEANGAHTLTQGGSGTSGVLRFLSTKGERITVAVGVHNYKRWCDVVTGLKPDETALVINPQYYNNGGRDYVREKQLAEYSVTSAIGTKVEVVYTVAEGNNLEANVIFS ?
-0.324

Fill blank: measured glycan array binding signal (z-score) of the binder Ficolin B (Rattus norvegicus), P57756 (protein) MVLGSAALFVLSLCVTELTLHAADTCPEVKVLDLEGSNKLTILQGCPGLPGALGPKGEAGAKGDRGESGLPGHPGKAGPTGPKGDRGEKGVRGEKGDTGPSQSCATGPRTCKELLTRGYFLTGWYTIYLPDCRPLTVLCDMDTDGGGWTVFQRRIDGTVDFFRDWTSYKQGFGSQLGEFWLGNDNIHALTTQGTNELRVDLADFDGNHDFAKYSSFQIQGEAEKYKLILGNFLGGGAGDSLTSQNNMLFSTKDQDNDQGSSNCAVRYHGAWWYSDCHTSNLNGLYLRGLHKSYANGVNWKSWKGYNYSYKVSEMKVRLI is ____.
-0.214
